- Test Name: antimalarial activity against Dd2 strain (AID 2302);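 also: 0% = DMSO untreated growth and 100% = chloroquine plus artemisinin killed control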
- Setup Conditions: P. falciparum Dd2 in RBCs, LDH growth readout, 72 h; at 2 µM
Calls of active or inactive are those of the source.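 The calls were made as follows: active = growth inhibition above 50% at the single 2 µM test dose, taken to imply half-maximal potency below 2 µM; inactive = the rest.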
Your response should consist of one outcome taken from active, inactive

Reference set, count: 6
c1ccc(CCNCc2ccc(-c3ccc(CNCc4ccc5c(c4)OCO5)cc3)nc2)cc1
active
NC(=O)c1cccc(Nc2nccc(Nc3ccc(Oc4cccc(Cl)c4)c(Cl)c3)n2)c1
inactive
CCN(CC)CCN(Cc1ccc(-c2ccc(C(F)(F)F)cc2)cc1)C(=O)Cn1c(CCc2cccc(F)c2F)nc(=O)c2ccc(C(F)(F)F)cc21
active
FC(F)(F)c1ccc2nc(-c3ccc(-c4cccc(CN5CCC(CCN6CCCCC6)CC5)c4)cc3)[nH]c2c1
active
c1ccc(CN2CCC(NCc3ccc(-c4cccc(CNC5CCCC5)c4)cc3)CC2)cc1
active
COc1c(C2CCN(CCCCNC(=O)C=Cc3cc4cc(Cl)ccc4o3)CC2)ccc2c1CCCC2
inactive

Ask: Per the assay record, what outcome was assigned to COc1ccc2c(c1)c(C1CCN(CCCCNC(=O)c3ccc(-c4ccc(C(F)(F)F)cc4)cc3)CC1)cn2C(C)C ?
Result: inactive

Ask: Next compound: CN1CCC(c2csc3ccc(NC(=O)Nc4ccc(-c5ccncc5)c5ccccc45)cc23)CC1
Result: active

---

- Test Name: inhibition of 3D7 malaria parasite growth – strain 3D7 (AID 2306);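 also: 0% = DMSO wells and 100% = chloroquine plus artemisinin control wells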
- Setup Conditions: P. falciparum 3D7 erythrocytic growth, LDH absorbance, 72 h; at 2 µM; active compounds read high
Record form. Attribute: growth inhibition. Fill in for each entry.
Numbers only, in %.

# count of solved cases: 5
Nc1ccc2nc(C=Cc3ccccc3)[nH]c2c1
92
Cc1cc(=O)oc2c1ccc1oc(C(O)c3ccc(Cl)cc3)c(C)c12 (stereo not given)
95
O=C(NCCCCN1CCC(c2ccc3c(c2OCc2ccncc2)CCCC3)CC1)c1ccc(-c2ccc(C(F)(F)F)cc2)cc1
101
Cc1ccccc1C1CCN(C2CCC(NC(=O)/C=C/c3ccc(C(F)(F)F)cc3F)CC2)CC1 (stereo not given)
99
Nc1ccc(Nc2ccnc3ccc(C(F)(F)F)cc23)cc1O
98

Okay, here is my list. What is growth inhibition for each of these?
1. O=C(c1cc2cccc([N+](=O)[O-])c2[nH]1)N1CCC(CCN2CCC(c3c[nH]c4ccccc34)CC2)CC1
2. COc1ccc2ncc(F)c(CCN3[C@@H]4CC[C@H]3CC(NCc3cc5c(cn3)OCS5)C4)c2n1 (stereo not given in full)
3. CCN(CC)CCOC(=O)c1ccc(NC(=O)c2cc(-c3ccc(C)cc3)nc3ccccc23)cc1
4. COc1ccc(CN2CCCC(C(=O)c3ccc(C(F)(F)F)cc3)C2)c(O)c1 (stereo not given)
5. CNCCNCc1ccc(-c2ccc(-c3nc4c(C)cccc4[nH]3)s2)cc1

Result:
89
95
97
98
97

Okay, here is my list. What is growth inhibition for each of these?
1. COc1ccccc1C1CCN(C2CCC(NC(=O)/C=C/c3cccc(Cl)c3)CC2)CC1 (stereo not given)
2. CC(CCc1ccccc1)NCC(O)c1ccc2c3c(cccc13)C(=O)N2C (stereo not given)
3. COc1ccc2nccc([C@H](O)CN3CCC(NCc4ccc5c(c4C)OCCO5)CC3)c2n1
4. O=C(NCc1cccc(F)c1)Nc1cccc(-c2ccc(-c3nc4ccc(C(F)(F)F)cc4[nH]3)cc2)c1
5. CN1CCN(CC2(Nc3nccc(NCCc4cn(C)c5ccccc45)n3)CCCCC2)CC1

Result:
[92, 99, 94, 98, 91]

Okay, here is my list. What is growth inhibition for each of these?
1. c1cc(-c2ccc(CNCCCn3ccnc3)cc2)cc(-c2nc3ccccc3[nH]2)c1
2. CC(C)(C)c1ccc(-c2cc(C(=O)N[C@@H](CO)C(=O)O)on2)cc1 (tested in a mixture with another compound)
3. CN(C)c1ccc(CN2CCC(NC(=O)c3ccc(-c4ccccc4F)s3)CC2)cc1
4. CCOc1ccc(-c2noc(-c3c[nH]c4ccccc4c3=O)n2)cc1

Result:
1: 101; 2: 87; 3: 86; 4: 99

Ask: Reported growth inhibition, molecule Cc1onc(-c2c(F)cccc2Cl)c1C(=O)Nc1ccccc1I : ____
Result: 99

---

Record form. Attribute: inhibition. Fill in for each entry.
- Test Name: human hepatoma cell viability loss – ATP luminescence, cytotoxicity control for P. falciparum antimalarial project, primary screen (AID 2303);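 also: 0% = DMSO wells and 100% = digitonin-killed cells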
- Setup Conditions: HepG2 viability, 24-48 h, at 10 µM, active compounds read high
Give bare numbers, in %.

NC(N)=NC(=O)Nc1cc(Cl)c(F)c(Cl)c1
22

Okay, here is my list. What is inhibition for each of these?
1. CC(C)(C)OC(=O)NCc1ccc(Nc2nnc(-c3cccc(C(=O)NCCC(c4ccccc4)c4ccccc4)c3)o2)cc1
2. O=C(Nc1ccc(F)c([N+](=O)[O-])c1)Nc1cc(C(F)(F)F)ccc1Cl
3. CN(C)Cc1ccc(-c2ccc3c(Nc4ccc(Oc5ccccc5)cc4)ccnc3c2)o1
4. CCN1CCN(CCNc2c3ccccc3nc3ccccc23)CC1

Result:
[-4, 5, 10, 45]

---

Record form. Attribute: growth inhibition. Fill in for each entry.
- Test Name: inhibition of 3D7 malaria parasite growth – strain 3D7 (AID 2306);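 also: 0% = DMSO wells and 100% = chloroquine plus artemisinin control wells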
- Setup Conditions: P. falciparum 3D7 erythrocytic growth, LDH absorbance, 72 h; at 2 µM; active compounds read high
Answers are plain numbers, in %.

# count of solved cases: 4
COc1ccc(CN(C)CCCc2ccc(NC(=O)c3cccc4c(=O)c5ccccc5[nH]c34)cc2)cc1OC
99
CN(C)c1ccc(CN2CCC(CNC(=O)c3cc(-c4ccccc4F)cs3)C2)cc1 (stereo not given)
101
COc1cc2nc(NCCc3ccccc3)nc(NCc3cc(C)no3)c2cc1OC
99
Cc1nc(N2CCC(C)CC2)c2c3c(sc2n1)CCCC3
93

Okay, here is my list. What is growth inhibition for each of these?
1. CCN(CCCN1CCCCC1)c1cc(C)nc(Nc2ccc(F)c(C(F)(F)F)c2)n1
2. CC1CN(Cc2ccc(-c3ccc(-c4nc5ccccc5[nH]4)cc3)cc2)CC(C)O1 (stereo not given)
3. O=C(Nc1ccc(F)cc1F)NC1CCN(c2ccnc3cc(Cl)ccc23)C1 (stereo not given)
4. CN(C)CCOc1ccc(/C(=C(/CCCn2ccnc2)c2ccccc2)c2ccc(O)cc2)cc1
5. O=C(Nc1cc(C(F)(F)F)cc(C(F)(F)F)c1)c1cccc([N+](=O)[O-])c1
6. COCCn1c(-c2nc(-c3ccc(F)cc3)cnc2N)nc2ccccc21

Result:
1: 100; 2: 98; 3: 100; 4: 101; 5: 93; 6: 98

Okay, here is my list. What is growth inhibition for each of these?
1. CC(C)C[C@H](NC(=O)c1cc2ccccc2s1)C(=O)N[C@H]1CCN(Cc2ccc(OC[C@@H]3CCCN3C)c(Cl)c2)C1
2. CC(C)[C@H](NC(=O)NC1CCC(CCN2[C@@H]3CC[C@H]2CC(OC(=O)C(CO)c2ccccc2)C3)CC1)C(O)(c1ccccc1)c1ccccc1 (stereo not given in full)
3. Cc1ccccc1C1CCN(C2CCC(NC(=O)c3cc4cc(C(C)C)ccc4[nH]3)CC2)CC1 (stereo not given)
4. CC(C)(C)c1cc(C(=O)N2CCC(c3ccccn3)CC2)n(Cc2ccccc2)n1
5. Cc1nc2nc(N)nc(N)c2c(C)c1Cc1ccc(Cl)cc1
6. O=C(NCCc1ccccc1)c1cc(-c2cccnc2)cnc1NCC1CC1

Result:
1. 101
2. 90
3. 99
4. 96
5. 94
6. 93

Okay, here is my list. What is growth inhibition for each of these?
1. CCC(=O)N(c1ccccc1)C1CCN(CCCC(NC(=O)c2cc(C(F)(F)F)cc(C(F)(F)F)c2)c2ccc(Cl)c(Cl)c2)CC1 (stereo not given)
2. CC(=NN=C(N)N)c1ccc2c(c1)Cc1ccccc1-2
3. CCCCCCc1cc2cc(-c3nc(-c4ccc(OC)cc4)cs3)c(=O)oc2cc1O

Result:
1: 96; 2: 101; 3: 97

Ask: Reported growth inhibition, compound COc1cc2nc(NCc3nc4ccccc4[nH]3)nc(N)c2cc1OC : ____
Result: 97

---

- Test Name: inhibition of 3D7 malaria parasite growth – strain 3D7 (AID 2306);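 also: 0% = DMSO wells and 100% = chloroquine plus artemisinin control wells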
- Setup Conditions: P. falciparum 3D7 erythrocytic growth, LDH absorbance, 72 h; at 2 µM; active compounds read high
Record form. Attribute: growth inhibition. Fill in for each entry.
Answers are plain numbers, in %.

CC1CCc2c(C(=O)Nc3c(F)cc(F)cc3Br)csc2C1 (centres undefined)
96
O=C(N[C@H]1CCN(Cc2ccc(OC3CCN(Cc4ccccc4)CC3)c(Br)c2)C1)c1ccc(Cl)c(Cl)c1
100
Cc1[nH]nc2cc(Nc3ccnc(Nc4cccc(CN5CCOCC5)c4)n3)ccc12
83
Cc1noc(C)c1-c1cccc(CNCc2cccc(-c3ccc(-c4nc5ccccc5[nH]4)s3)c2)c1
101
COc1ccc(N2CCN(CCCCNC(=O)c3ccc(NC(=O)c4ccc(Cl)cc4)cc3)CC2)c(OC)c1
97
CNCCNCc1ccc(-c2ccc(-c3nc4ccccc4[nH]3)s2)cc1
99
Cc1nc(N)nc(N)c1OCCCOc1cccc(Cl)c1Cl
93
Cc1cc(N(C)C)nc(Nc2ccc(NC(=O)c3c(F)cccc3F)cc2)n1
94

Ask: Reported growth inhibition, compound CC(C)NCc1ccc(-c2ccc(CN3CCCC(c4ccccc4)C3)cc2)c(C(=O)NC2Cc3ccccc3C2)c1 (centres undefined) : ____
Result: 96

From: PubChem BioAssay
